Assay: physchem
Conditions: octanol/0.05 M phosphate buffer, pH 7.4
Description: Compound was evaluated for apparent partition coefficient (log P) between octanol and 0.05 M phosphate buffer solution of pH 7.40
hey, just use T if measured logD is less than 2, otherwise F

>>> print(df.to_string())
                                   molecule  discrete_label
0  CC[C@H](C(=O)OCc1ccccc1C)[C@H](CO)Cc1cncn1C               F
1  CC[C@H](C(=O)OC(C)c1ccccc1)[C@H](CO)Cc1cncn1C (stereo partly specified)               F
2  CC[C@H](C(=O)OCc1ccccc1)[C@H](CO)Cc1cncn1C               T
3      CCOC(=O)[C@@H](CC)[C@H](CO)Cc1cncn1C               T
4  CC[C@H](C(=O)OCc1ccc(Cl)cc1)[C@H](CO)Cc1cncn1C               F

Q: Given the entry CCCCOC(=O)[C@@H](CC)[C@H](CO)Cc1cncn1C , would its reported logD be below 2?
A: T

----------
Test: physchem
Conditions: pH 7.4
We begin with a simple list: items and their reported log10 half-life.
Remember, log10 of half-life, in h.

# example entries with known answers
In [3]: df
Out[3]:
                                   compound  observed_measurement
0  CC[C@H](C(=O)OC(C)c1ccccc1)[C@H](CO)Cc1cncn1C (some centres undefined)                  0.90
1      CCOC(=O)[C@@H](CC)[C@H](CO)Cc1cncn1C                  0.93
2  CC[C@H](C(=O)OCCc1ccccc1)[C@H](CO)Cc1cncn1C                  0.58
3  CC[C@H](C(=O)OCc1ccccc1C)[C@H](CO)Cc1cncn1C                  0.37
4  CC[C@H](C(=O)OCc1ccc(Cl)cc1)[C@H](CO)Cc1cncn1C                 -0.30

Record CCCCCCOC(=O)[C@@H](CC)[C@H](CO)Cc1cncn1C . Reported log10 half-life: 1.26

Record CC[C@H](C(=O)OCc1ccc(C)cc1)[C@H](CO)Cc1cncn1C . Reported log10 half-life: 0.11

Record CC[C@H](C(=O)OCc1ccccc1)[C@H](CO)Cc1cncn1C . Reported log10 half-life: -0.08

Record CCCCOC(=O)[C@@H](CC)[C@H](CO)Cc1cncn1C . Reported log10 half-life: 1.14

----------
Experiment: physchem
Settings: octanol/0.05 M phosphate buffer, pH 7.4
We begin with a simple list: items and their reported logD.

# example entries with known answers
>>> print(df.to_string())
                           structure_smiles  observed_measurement
0  CCCCCCOC(=O)[C@@H](CC)[C@H](CO)Cc1cncn1C                  2.56
1  CC[C@H](C(=O)OCCc1ccccc1)[C@H](CO)Cc1cncn1C                  2.16

Record CC[C@H](C(=O)OCc1ccc(C)cc1)[C@H](CO)Cc1cncn1C . Reported logD: 2.31
